system: IGROV1 ovarian; assay: NCI-60 one-dose screen, 48 h (100 = growth as untreated, 0 = no growth, -100 = all killed); details: 10 µM unless noted
About 83,000 compounds went through this panel and 20% of them were active in at least one assay; those are over-represented in the sample as a whole.
Binned growth; ranges: low: < 30%; medium: ≥ 30% and < 70%; high: ≥ 70%

Reference set (2 entries):
O=c1c(/C=C/c2c(O)ccc3ccccc23)nnc2sc(-c3cccc([N+](=O)[O-])c3)nn12 :: medium
CNC1=C(Br)C(=O)c2c(C(=O)OC)c(C)nc(C)c2C1=O :: medium

Categorize the following entry: CN(C)C(=O)OCc1ccc2c(Cl)cc(Cl)c(O)c2n1
medium

Categorize the following entry: Cc1nc2ccccc2c(/C=C/c2ccc(Br)cc2)c1C(=O)/C=C/c1ccccc1
low

Categorize the following entry: COc1cc2c(c(OC)c1OC)CCC(c1cccc(C(=O)Nc3ccccc3Br)c1)O2 (stereo not given)
high

Categorize the following entry: Oc1cccc(-c2nc(-c3n[nH]c(=S)n3-c3ccccc3)cc3c2[nH]c2ccccc23)c1
low

Categorize the following entry: O=C(Nc1ccccc1)Nc1ccccc1CNc1nc(Nc2ccc(OCCN3CCCC3)cc2)ncc1Cl
high

Categorize the following entry: Cc1ccc(Nc2oc(-c3ccccc3)nc2[P+](c2ccccc2)(c2ccccc2)c2ccccc2)cc1
low

Categorize the following entry: CCOC(=O)CCC(=O)P(=O)(O)O
high
